I'd be grateful if you could share measured [Mod] Fold Change Myo for these entries.
test system: primary human skeletal myotubes; assay: IRES screening, Gaussia luciferase from LNP-oRNA (Table 27); settings: Gaussia luciferase luminescence in supernatant 48 hours after LNP-oRNA transfection, normalized to control (caprine kobuvirus IRES)
One number for each entry, in Fold Change.

Recorded [Mod] Fold Change Myo, per entry:
Record CC(C)=CCCC(C)CC(=O)OCCCCCCC(CCCCCCOC(=O)CC(C)CCC=C(C)C)OC(=O)CCCn1ccnc1C (centres unmarked) [Lipid 10a-119] . Reported [Mod] Fold Change Myo: 0.198

Record CCCCCCCCCN(CCCCn1ccnc1)C(CCCCCCCCC(=O)OCC(CCCC)CCCCCC)CCCCCCCCC(=O)OCC(CCCC)CCCCCC (centres unmarked) [Lipid 10a-148] . Reported [Mod] Fold Change Myo: 0.03913

Record CCCCCCCCCOC(=O)CCCCCCCN(CCCCCCCC(=O)OC(CCCCCCCC)CCCCCCCC)CCn1ccnc1 [Lipid 10a-132] . Reported [Mod] Fold Change Myo: 0.03998

Record CCCCCCCCC(CCCCCC)C(=O)OCCCCCCN(CCCCCCOC(=O)C(CCCCCC)CCCCCCCC)CCC(C)n1ccnc1 (centres unmarked) [Lipid 10a-130] . Reported [Mod] Fold Change Myo: 0.04058

Attention now shifts to the item below.
Record CCCCCCCCC(CCCCCC)C(=O)OCCCCCCN(CCCn1ccnc1C)CC(O)CCCCOC(=O)C(CCCCCC)CCCCCCCC (centres unmarked) [Lipid 10a-149] . Reported [Mod] Fold Change Myo: 0.03919
